src = ChEMBL document CHEMBL1770099

Target under test: D(1A) dopamine receptor (Sus scrofa)
Sequence (P50130 whole entry): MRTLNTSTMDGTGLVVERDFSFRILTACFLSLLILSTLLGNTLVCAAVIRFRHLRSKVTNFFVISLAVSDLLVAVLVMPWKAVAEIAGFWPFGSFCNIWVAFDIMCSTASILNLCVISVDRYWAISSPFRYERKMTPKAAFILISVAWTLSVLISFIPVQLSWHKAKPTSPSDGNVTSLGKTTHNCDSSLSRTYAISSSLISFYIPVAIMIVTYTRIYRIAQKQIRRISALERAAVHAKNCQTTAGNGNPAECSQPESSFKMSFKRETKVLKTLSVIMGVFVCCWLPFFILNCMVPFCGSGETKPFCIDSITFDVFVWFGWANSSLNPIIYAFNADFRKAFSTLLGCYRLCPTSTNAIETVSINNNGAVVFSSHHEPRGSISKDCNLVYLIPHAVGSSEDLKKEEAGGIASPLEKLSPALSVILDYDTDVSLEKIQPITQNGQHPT
Method summary: Displacement of [3H]SCH-23390 from dopamine D1 receptor in pig striatal membranes
Entries and their Ki
Measurement type: Ki (nM)

* COc1ccc2c(c1)CCCN(CCCCN1CCN(c3ccccc3OC)CC1)C2=O | 2100
* C#Cc1ccc2c(c1)CCN(CCCCN1CCN(c3ccccc3OC)CC1)C2=O | 1900
* COc1ccccc1N1CCN(CCCCN2CCc3cc(-c4ccco4)ccc3C2=O)CC1 | 580
* COc1ccccc1N1CCN(CCCCN2CCCc3cc(-c4cccs4)ccc3C2=O)CC1 | 920
* COc1ccccc1N1CCN(CCCCN2CCc3cc(C#N)ccc3C2=O)CC1 | 3200
* COc1ccccc1N1CCN(CCCCN2CCc3cc(-c4ccccc4)ccc3C2=O)CC1 | 640
* COc1ccccc1N1CCN(CCCCN2CCc3c(cccc3-c3ccccc3)C2=O)CC1 | 220
* COc1ccccc1N1CCN(CCCCN2CCc3cc(F)ccc3C2=O)CC1 | 2300
* COc1ccccc1N1CCN(CCCCN2CCc3cc(-c4ccncc4)ccc3C2=O)CC1 | 380
* COc1ccccc1N1CCN(CCCCN2CCCc3ccccc3C2=O)CC1 | 2900
* COc1ccccc1N1CCN(CCCCN2CCc3cc(-c4cccs4)ccc3C2=O)CC1 | 480
* COc1ccccc1N1CCN(CCCCN2CCc3ccccc3C2=O)CC1 | 2500

====

Entries and their pKi
Method summary: Displacement of [3H]WAY-100635 from pig 5-HT1A receptor
Parameters: species or system Sus scrofa
pKi: −log10 of the molar value.
Measurement type: pKi

- COc1ccccc1N1CCN(CCCCN2CCc3cc(F)ccc3C2=O)CC1: 8.77
- COc1ccccc1N1CCN(CCCCN2CCc3cc(-c4cccs4)ccc3C2=O)CC1: 8.21
- COc1ccccc1N1CCN(CCCCN2CCc3cc(-c4ccncc4)ccc3C2=O)CC1: 7.89
- COc1ccccc1N1CCN(CCCCN2CCCc3ccccc3C2=O)CC1: 8.77
- COc1ccccc1N1CCN(CCCCN2CCCc3cc(-c4cccs4)ccc3C2=O)CC1: 7.17
- COc1ccccc1N1CCN(CCCCN2CCc3cc(C#N)ccc3C2=O)CC1: 8.42
- COc1ccc2c(c1)CCCN(CCCCN1CCN(c3ccccc3OC)CC1)C2=O: 8.60
- COc1ccccc1N1CCN(CCCCN2CCc3ccccc3C2=O)CC1: 8.62
- COc1ccccc1N1CCN(CCCCN2CCc3cc(-c4ccccc4)ccc3C2=O)CC1: 7.42
- COc1ccccc1N1CCN(CCCCN2CCc3c(cccc3-c3ccccc3)C2=O)CC1: 7.33
- C#Cc1ccc2c(c1)CCN(CCCCN1CCN(c3ccccc3OC)CC1)C2=O: 7.85
- COc1ccccc1N1CCN(CCCCN2CCc3cc(-c4ccco4)ccc3C2=O)CC1: 7.72

====

Target under test: D(2) dopamine receptor (Homo sapiens)
Sequence (P14416 whole entry): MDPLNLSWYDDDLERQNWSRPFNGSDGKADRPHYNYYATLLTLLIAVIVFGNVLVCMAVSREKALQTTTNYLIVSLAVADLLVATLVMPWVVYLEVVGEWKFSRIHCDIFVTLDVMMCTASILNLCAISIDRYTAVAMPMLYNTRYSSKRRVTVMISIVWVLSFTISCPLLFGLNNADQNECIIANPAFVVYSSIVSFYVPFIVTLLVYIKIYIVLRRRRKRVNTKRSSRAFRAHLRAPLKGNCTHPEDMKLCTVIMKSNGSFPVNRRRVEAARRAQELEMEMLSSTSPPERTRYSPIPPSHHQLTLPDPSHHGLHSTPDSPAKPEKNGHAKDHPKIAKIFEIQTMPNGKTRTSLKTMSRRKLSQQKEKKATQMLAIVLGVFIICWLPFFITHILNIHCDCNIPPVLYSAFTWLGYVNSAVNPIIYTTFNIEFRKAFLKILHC
Method summary: Displacement of [3H]Spiperone from human dopamine D2 short receptor expressed in CHO cells
Format: cell-based
Measurement type: Ki (nM)

• COc1ccccc1N1CCN(CCCCN2CCc3cc(-c4ccccc4)ccc3C2=O)CC1 = 15
• COc1ccc2c(c1)CCCN(CCCCN1CCN(c3ccccc3OC)CC1)C2=O = 0.93
• COc1ccccc1N1CCN(CCCCN2CCc3cc(-c4ccco4)ccc3C2=O)CC1 = 4.8
• COc1ccccc1N1CCN(CCCCN2CCCc3ccccc3C2=O)CC1 = 1.5
• COc1ccccc1N1CCN(CCCCN2CCc3ccccc3C2=O)CC1 = 7
• COc1ccccc1N1CCN(CCCCN2CCc3cc(C#N)ccc3C2=O)CC1 = 22
• C#Cc1ccc2c(c1)CCN(CCCCN1CCN(c3ccccc3OC)CC1)C2=O = 8.8
• COc1ccccc1N1CCN(CCCCN2CCc3cc(-c4cccs4)ccc3C2=O)CC1 = 6.9
• COc1ccccc1N1CCN(CCCCN2CCc3c(cccc3-c3ccccc3)C2=O)CC1 = 63
• COc1ccccc1N1CCN(CCCCN2CCCc3cc(-c4cccs4)ccc3C2=O)CC1 = 2.1
• COc1ccccc1N1CCN(CCCCN2CCc3cc(F)ccc3C2=O)CC1 = 9.2
